In this section, each of the binders is paired with its reported koff.
# tested_system: T1, rhCD39-ECD-His (R&D Systems) (human, UniProt P49961 38-478)
# T1 construct: Bought protein; that entry runs on through the C-terminal transmembrane and cytoplasmic residues; also called recombinant human CD39 extracellular domain; soluble recombinant human CD39 (ENTDP1) ECD; not shown: His tag
# T1 sequence: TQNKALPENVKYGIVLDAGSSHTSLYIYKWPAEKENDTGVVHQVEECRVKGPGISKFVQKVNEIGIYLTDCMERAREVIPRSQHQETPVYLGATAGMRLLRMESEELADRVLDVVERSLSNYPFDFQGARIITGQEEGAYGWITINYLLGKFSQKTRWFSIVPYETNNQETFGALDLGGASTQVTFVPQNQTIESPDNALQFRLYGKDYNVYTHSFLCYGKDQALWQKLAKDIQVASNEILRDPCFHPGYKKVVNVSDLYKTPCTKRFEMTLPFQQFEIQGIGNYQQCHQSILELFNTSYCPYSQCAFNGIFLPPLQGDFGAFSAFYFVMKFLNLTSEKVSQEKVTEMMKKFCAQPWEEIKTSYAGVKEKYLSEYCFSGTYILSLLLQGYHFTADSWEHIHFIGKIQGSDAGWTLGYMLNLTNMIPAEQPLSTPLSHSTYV
# protocol_details: BLI (Octet), IgG on anti-human Fc sensor, rhCD39-ECD-His 10-300 nM, 1:1 fit
# Procedure: The kinetic data was globally fit with a simple 1:1 Langmuir binding model to yield on-rate (kon) and off-rate (koff) values. The equilibrium dissociation constants (KD) were calculated from the kon and koff values. Binding kinetics were measured using the Octet Red96 system (ForteBio) at 25° C. in running buffer (1× Pall ForteBio Kinetics Buffer diluted into PBS or Tris pH 7.4). […] Dissociation of the complex was monitored upon exposure of the sensors to running buffer once again. […]
Kindly answer with a numeric value in s⁻¹, unit omitted.

| binder | koff [s⁻¹] |
| --- | --- |
| 31861 (antibody, V domains shown) VH: QVQLVQSGAEVKKPGSSVKVSCKASGGTFGSYGISWVRQAPGQGLEWMGSIIPEFGIANYAQKFQGRVTITADESTSTAYMELSSLRSEDTAVYYCARESGTYRDHRLDVWGQGTMVTVSS VL: EIVMTQSPATLSVSPGERATLSCRASQSVGSNLAWYQQKPGQAPRLLIYGASTRATGIPARFSGSGSGTEFTLTISSLQSEDFAVYYCQQYLLWPLTFGGGTKVEIKR | 0.000286 |
| 31393 (antibody, V domains shown) VH: QVQLVQSGAEVKKPGSSVKVSCKASGGTFESYGISWVRQAPGQGLEWMGSIIPEFGIANYAQKFQGRVTITADESTSTTYMELSSLRSEDTAVYYCARESGGYRDHRLDVWGQGTMVTVSS VL: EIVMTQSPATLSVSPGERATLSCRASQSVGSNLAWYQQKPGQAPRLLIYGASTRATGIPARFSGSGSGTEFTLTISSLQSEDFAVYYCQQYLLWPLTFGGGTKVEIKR | 0.0002 |

Turning to the following binder.
Req: Look up koff for this binder: 27571 (antibody, V domains shown) VH: QVQLVQSGAEVKKPGSSVKASCKASGGTFSSYAISWVRQAPGQGLEWMGSIIPIFGTANYAQKFRGRVTITADESTSTTYMELSSLRSEDTAVYYCARESGGYRDHRLDVWGQGTMVTVSS VL: EIVMTQSPATLSVSPGERATLSCRASQSVGSNLAWYQQKPGQAPRLLIYGASTRATGIPARFSGSGSGTEFTLTISSLQSEDFAVYYCQQYLIWPLTFGGGTKVEIK
Resp: 0.0105

Where do these numbers come from? They come from patent US20250026850A1.
